Molecular target: RAF proto-oncogene serine/threonine-protein kinase (Homo sapiens)
MEASURE_NAME: IC50 (nM)

{"CHEMICAL_STRING": "COCCNC(=O)c1cccc(Oc2ccc(NC(=O)Nc3ccc(Cl)c(C(F)(F)F)c3)cc2)c1", "IC50 / nM": 110}

P. CCNC(=O)c1cccc(Oc2ccc(NC(=O)Nc3cc(C(C)(C)C)on3)cc2)c1
Q. O=C(Nc1ccc(Oc2ccnc(C(=O)NCCN3CCOCC3)c2)cc1)Nc1ccc(Cl)c(C(F)(F)F)c1
// which entry has the larger IC50 value, P or Q ? Please indicate the selected item by its label.
P

---

What follows is a collection of IC50 values obtained with RAF proto-oncogene serine/threonine-protein kinase (Homo sapiens, UniProt P04049).
Sequence (P04049 whole entry): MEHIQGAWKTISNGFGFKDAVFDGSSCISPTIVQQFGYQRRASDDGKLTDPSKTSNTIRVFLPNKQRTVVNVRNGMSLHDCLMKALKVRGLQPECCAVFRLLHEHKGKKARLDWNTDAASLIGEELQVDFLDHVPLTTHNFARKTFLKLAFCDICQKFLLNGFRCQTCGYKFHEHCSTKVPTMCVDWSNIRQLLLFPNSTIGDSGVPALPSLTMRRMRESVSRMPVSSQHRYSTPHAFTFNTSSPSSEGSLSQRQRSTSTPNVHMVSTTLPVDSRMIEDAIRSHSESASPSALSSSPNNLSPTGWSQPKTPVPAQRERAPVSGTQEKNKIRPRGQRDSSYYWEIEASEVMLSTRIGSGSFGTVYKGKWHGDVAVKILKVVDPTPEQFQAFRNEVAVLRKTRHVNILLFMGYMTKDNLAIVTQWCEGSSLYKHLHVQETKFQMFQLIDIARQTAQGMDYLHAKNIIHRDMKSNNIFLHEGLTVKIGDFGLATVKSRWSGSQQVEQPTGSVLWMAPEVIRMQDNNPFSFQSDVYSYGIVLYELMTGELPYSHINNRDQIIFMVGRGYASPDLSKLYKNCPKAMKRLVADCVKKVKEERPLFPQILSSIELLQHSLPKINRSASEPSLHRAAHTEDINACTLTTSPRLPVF
MEASURE_NAME: IC50 (nM)

{"CHEMICAL_STRING": "CNC(=O)c1cccc(Oc2ccc(NC(=O)Nc3cc(C(C)(C)C)on3)cc2)c1", "UNITS": "nM", "IC50": 120}
{"CHEMICAL_STRING": "O=C(Nc1ccc(Oc2cccc(C(=O)NCCNc3ccccc3)c2)cc1)Nc1ccc(Cl)c(C(F)(F)F)c1", "UNITS": "nM", "IC50": 160}
{"CHEMICAL_STRING": "CCCNC(=O)c1cccc(Oc2ccc(NC(=O)Nc3cc(C(C)(C)C)on3)cc2)c1", "UNITS": "nM", "IC50": 140}
{"CHEMICAL_STRING": "O=C(Nc1ccc(Oc2cccc(C(=O)Nc3ccc(N4CCOCC4)cc3)c2)cc1)Nc1ccc(Cl)c(C(F)(F)F)c1", "UNITS": "nM", "IC50": 160}
{"CHEMICAL_STRING": "COc1ccncc1NC(=O)c1cccc(Oc2ccc(NC(=O)Nc3ccc(Cl)c(C(F)(F)F)c3)cc2)c1", "UNITS": "nM", "IC50": 130}
{"CHEMICAL_STRING": "COc1ccc(NC(=O)c2cccc(Oc3ccc(NC(=O)Nc4cc(C(F)(F)F)ccc4OC)cc3)c2)cn1", "UNITS": "nM", "IC50": 150}

src = ChEMBL document CHEMBL1147437
